Protocol: neutron diffusion of nanoparticles loaded with hydrophobic compounds
Assay type: physicochemical
Measurement Label: incorporation in nanoparticles of the cyclodextrin of example 1

Molecule | Observed Result
CN(C)CC/C=C1\c2ccccc2CSc2ccccc21 [dothiepin] | detected
O=C(N[C@H](CO)[C@H](O)c1ccc([N+](=O)[O-])cc1)C(Cl)Cl | detected
O=c1ccc2cc(O[C@@H]3O[C@H](CO)[C@@H](O)[C@H](O)[C@H]3O)c(O)cc2o1 | detected

src = patent US6858723B1
